B1: HDV Ribozyme (parent)
chain: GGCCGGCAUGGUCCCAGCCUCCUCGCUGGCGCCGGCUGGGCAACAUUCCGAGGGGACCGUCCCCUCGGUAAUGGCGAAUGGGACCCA

# Variants of: B1
# experiment.description: self-cleavage, relative activity (ratio to wild type); higher = more cleavage; co-transcriptional
The label depends only on self-cleavage: condition met if it is at least 0.2, condition not met if it is smaller.

GGCCGGAAUGGUCCCAGCCUCCUCGCUGGCGCCGGCUGUGCAACAUUCCGAGGGGACCGUCCCCUCGGUAAUGGCGAAUGGGACCCA :: condition not met

Q. In plain terms: is recorded self-cleavage at least 0.2 for `GGCCGGCAUGGUCCCAGCCUCCUCGCUGGCGCCGGCUGGGCACCAUUCCGAGGGGACCAUCCCCUCGGUAAUGGCGAAUGGGACCCA` ?
A. condition met

Q. Answer whether self-cleavage of `GGCCGGCAGGGUCCCAGCCUCCUCGCUGGCGCCGGCUGGGCAACCUUCCGAGGGGACCGUCCCCUCGGUAAUGGCGAAUGGGACCCA` is greater than or equal to 0.2.
A. condition met

Q. Textbook exercise: given the entry `GGCCGGCAUGGUCGCAGCCUCCUCGCUGGCGCCGGCUGGGCAACAUUCCGAGGGGACCGUCCCCUCGGUAAUGGCGAAGGGGACCCA` , state whether its self-cleavage is greater than or equal to 0.2.
A. condition not met

Q. API: above_or_equal(metric=self-cleavage, cutoff=0.2) for item `GGCCGGCAUGGUCCCAGCCUCCUCGCUGGCGCCGGCUGGGCAACAAUCCGAGGGGACCGUCCCCUCGGUAAUAGCGAAUGGGACCCA`
A. condition met

Q. self-cleavage >= 0.2 for `GGCCGGCAUGGUCCCAGCCUCCUCGCUGGCGUCGGCUGGGCAACAUUCGGAGGGGACCGUCCCCUCGGUAAUGGCGAAUGGGACCCA` ?
A. condition met

Q. // inclusive: self-cleavage at least 0.2? input: `GGCCGGCAUGGACCCAGCCUCCUCGCUGGCGCCGGCUAGGCAACAUUCCGAGGGGACCGUCCCCUCGGUAAUGGCGAAUGGGACCCA`
A. condition not met

Q. Check if self-cleavage >= 0.2 (inclusive). Item: `GGCCGGCAUGGUCCCAGCCUCCUCACUGGCGCCGGCUGGGCUACAUUCCGAGGGGACCGUCCCCUCGGUAAUGGCGAAUGGGACCCA`
A. condition not met

Q. Is self-cleavage for `GGCCGGCAUGGUCCCAGCCUCCUCGCUGGCGCCGGCUGGCCAACAUUCCGAGGGGAACGUCCCCUCGGUAAUGGCGAAUGGGACCCA` at or above 0.2?
A. condition met

Q. Please tell me: is the variant `GGCCGGCAUGGUCCCAGCCUCCUCGCUGGCGCCGGCUGGGCAACAUUCCGAGGGGACCGUCCCCUCGGUAAUGGCGAACUGGACCCA` at or over 0.2 in terms of self-cleavage?
A. condition met

Q. Answer whether self-cleavage of `GGCCCGCAUGGUCCCAGCCUCCUCGCUGGCGCCGGCUGGGCAACAUUCCGAGGGGACCGUCCCCUCGGUAAUGGCGAAUCGGACCCA` is greater than or equal to 0.2.
A. condition not met

Q. Is self-cleavage at least 0.2? Consider `GGCCGGCAUGGUCCCAGCCUCCUCGCUGGCGCCGGCUGGGCAACAUUCCGAGGGGACCGUCCCCUCGGUAACGGCGAAUGGGACCGA`
A. condition met

Q. Identify whether the reported self-cleavage of the following variant is 0.2 or greater: `GGCCGGCAUGGGCCCAGCCUCCUCGCUGGCGCCGGCUGGGCAACAGUCCGAGGGGACCGUCCCCUCGGUAAUGGCGAAUGGGACCCA`
A. condition met

Q. Could you please find out whether `GGCCGGCAUGGUCCCACCCUCCUCGCUGGCGCCGGCUGGGCAACAUUCCGAGGGGACCGUCCCCACGGUAAUGGCGAAUGGGACCCA` has self-cleavage that meets 0.2 or exceeds it?
A. condition met

Q. Assess whether reported self-cleavage for `GGCCGGCAUGGUCCCAGCCUCCUCGCUGGCGCCGGCUGGGCAACAUUCCGAGGGAACCGUCCCCUCGGUAAUGGCGAAUGAGACCCA` sits at 0.2 or higher.
A. condition met

Q. // inclusive: self-cleavage at least 0.2? input: `GGCCGGCAUGGUCCCAGCCUUCUCGCUGGCGCCGGCUGGGCAACCUUCCGAGGGGACCGUCCCCUCGGUAAUGGCGAAUGGGACCCA`
A. condition not met

Q. Textbook exercise: given the entry `GGCCCGCAUGGUCCCAGCCUCCUCGCUGGCGCCGGCUGGGCAACAUUCCGAGGGGACCGUCCCCUCGGUAAUGGCGAAUGGGACCCC` , state whether its self-cleavage is greater than or equal to 0.2.
A. condition met

Q. Say whether `GGCCGGCAUGGUCCCAGCCUCCUCGCUGGCGCCGGCUGGGCAACAUUCCGAGGGGACCGUCCCCUCGGUAACGGCGCAUGGGACCCA` shows self-cleavage of 0.2 or more.
A. condition met
